Tested on: Escherichia coli TOP10
Assay: shrunken log2 fold change of peptide-encoding DNA abundance (4.5 h post-induction vs induction); higher = less antimicrobial activity (less host growth inhibition)
Details: time post-induction: 4.5 h; library: site-saturation at positions 5, 18, 19, 20
Please provide measured shrunken log2 fold change for the entries that follow.
One number for each entry.

Observe how each entry below is paired with its result.
RRIRSRPPRLPRPRPRPDIPPRP
-0.178
RRIRLRPPRLPRPRPRPRQCPRP
0.283
RRIRVRPPRLPRPRPRPCLFPRP
-0.592

# input for lookup
RRIRKRPPRLPRPRPRPLEPPRP has a reported shrunken log2 fold change of 0.238

* * *

System: Escherichia coli TOP10
Assay: shrunken log2 fold change of peptide-encoding DNA abundance (4.5 h post-induction vs induction); higher = less antimicrobial activity (less host growth inhibition)
Conditions: time post-induction: 4.5 h; library: site-saturation at positions 5, 18, 19, 20
Please provide measured shrunken log2 fold change for the entries that follow.
Give bare numbers.

Observe how each entry below is paired with its result.
RRIRNRPPRLPRPRPRPSQGPRP
-0.154
RRIRRRPPRLPRPRPRPPRNPRP
1.28
RRIRDRPPRLPRPRPRPAARPRP
0.518
RRIRMRPPRLPRPRPRPKSAPRP
0.389
RRIRKRPPRLPRPRPRPEDMPRP
0.0387

Give measured shrunken log2 fold change for every item shown.
1. RRIRKRPPRLPRPRPRPCIIPRP
2. RRIRARPPRLPRPRPRPQEMPRP
3. RRIRVRPPRLPRPRPRPPCYPRP
4. RRIRFRPPRLPRPRPRPSSLPRP

[out]
[-0.108, -0.0254, -0.356, -0.856]

* * *

Tested on: Escherichia coli TOP10
Experiment: shrunken log2 fold change of peptide-encoding DNA abundance (4.5 h post-induction vs induction); higher = less antimicrobial activity (less host growth inhibition)
Conditions: time post-induction: 4.5 h; library: site-saturation at positions 5, 18, 19, 20
Just so you know, the groups by shrunken log2 fold change go like this: low class (below -0.07), middle class (-0.07 to below 0.06), high class (0.06 or more)

These recorded examples may help you get a feel for the data.
RRIRCRPPRLPRPRPRPFDYPRP
middle class
RRIRVRPPRLPRPRPRPEMSPRP
middle class
RRIRWRPPRLPRPRPRPIDCPRP
middle class
RRIRARPPRLPRPRPRPDEDPRP
high class
RRIRPRPPRLPRPRPRPYDWPRP
middle class

[in] Could you place RRIRKRPPRLPRPRPRPCWFPRP in its proper category? Many thanks.
[out] middle class

[in] Could you place RRIRGRPPRLPRPRPRPTDIPRP in its proper category? Many thanks.
[out] high class

[in] Could you place RRIRLRPPRLPRPRPRPQTKPRP in its proper category? Many thanks.
[out] low class

[in] Could you place RRIRGRPPRLPRPRPRPAPNPRP in its proper category? Many thanks.
[out] high class

[in] Could you place RRIRPRPPRLPRPRPRPYIIPRP in its proper category? Many thanks.
[out] low class

[in] Could you place RRIRWRPPRLPRPRPRPHCHPRP in its proper category? Many thanks.
[out] low class

[in] Could you place RRIRPRPPRLPRPRPRPEGEPRP in its proper category? Many thanks.
[out] high class

* * *

Test system: Escherichia coli TOP10;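 further: peptides expressed intracellularly from a pBAD plasmid library in pooled LB shake-flask culture, induced with 0.3% L-arabinose, DNA abundance read by NGS, three biological replicates, DESeq2 with apeglm shrinkage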
Assay: shrunken log2 fold change of peptide-encoding DNA abundance (4.5 h post-induction vs induction); higher = less antimicrobial activity (less host growth inhibition)
Conditions: time post-induction: 4.5 h; library: site-saturation at positions 5, 18, 19, 20
Please provide measured shrunken log2 fold change for the entries that follow.
One number for each entry.

Observe how each entry below is paired with its result.
RRIRPRPPRLPRPRPRPIQAPRP
0.144
RRIRARPPRLPRPRPRPEVMPRP
0.28
RRIRARPPRLPRPRPRPLGYPRP
0.223
RRIRVRPPRLPRPRPRPSYHPRP
-0.819
RRIRGRPPRLPRPRPRPDRWPRP
0.703

Give measured shrunken log2 fold change for every item shown.
1. RRIRIRPPRLPRPRPRPFDYPRP
2. RRIRSRPPRLPRPRPRPKYAPRP
3. RRIRHRPPRLPRPRPRPDFLPRP

[out]
-0.182
-0.323
-0.0554

Give measured shrunken log2 fold change for every item shown.
1. RRIRHRPPRLPRPRPRPTWWPRP
2. RRIRERPPRLPRPRPRPWMSPRP
3. RRIRSRPPRLPRPRPRPNIKPRP
4. RRIRFRPPRLPRPRPRPDPVPRP
5. RRIRGRPPRLPRPRPRPTFVPRP
6. RRIRDRPPRLPRPRPRPVNKPRP

[out]
1: 0.368; 2: -0.0212; 3: -0.491; 4: 0.227; 5: 0.782; 6: -0.0502
